meta.source: ChEMBL document CHEMBL3991601

experimental_target: Serine/threonine-protein kinase SIK3 (Homo sapiens, UniProt Q9Y2K2); also: in the data inactive means no Kd found up to 30 µM
Sequence (Q9Y2K2 whole entry): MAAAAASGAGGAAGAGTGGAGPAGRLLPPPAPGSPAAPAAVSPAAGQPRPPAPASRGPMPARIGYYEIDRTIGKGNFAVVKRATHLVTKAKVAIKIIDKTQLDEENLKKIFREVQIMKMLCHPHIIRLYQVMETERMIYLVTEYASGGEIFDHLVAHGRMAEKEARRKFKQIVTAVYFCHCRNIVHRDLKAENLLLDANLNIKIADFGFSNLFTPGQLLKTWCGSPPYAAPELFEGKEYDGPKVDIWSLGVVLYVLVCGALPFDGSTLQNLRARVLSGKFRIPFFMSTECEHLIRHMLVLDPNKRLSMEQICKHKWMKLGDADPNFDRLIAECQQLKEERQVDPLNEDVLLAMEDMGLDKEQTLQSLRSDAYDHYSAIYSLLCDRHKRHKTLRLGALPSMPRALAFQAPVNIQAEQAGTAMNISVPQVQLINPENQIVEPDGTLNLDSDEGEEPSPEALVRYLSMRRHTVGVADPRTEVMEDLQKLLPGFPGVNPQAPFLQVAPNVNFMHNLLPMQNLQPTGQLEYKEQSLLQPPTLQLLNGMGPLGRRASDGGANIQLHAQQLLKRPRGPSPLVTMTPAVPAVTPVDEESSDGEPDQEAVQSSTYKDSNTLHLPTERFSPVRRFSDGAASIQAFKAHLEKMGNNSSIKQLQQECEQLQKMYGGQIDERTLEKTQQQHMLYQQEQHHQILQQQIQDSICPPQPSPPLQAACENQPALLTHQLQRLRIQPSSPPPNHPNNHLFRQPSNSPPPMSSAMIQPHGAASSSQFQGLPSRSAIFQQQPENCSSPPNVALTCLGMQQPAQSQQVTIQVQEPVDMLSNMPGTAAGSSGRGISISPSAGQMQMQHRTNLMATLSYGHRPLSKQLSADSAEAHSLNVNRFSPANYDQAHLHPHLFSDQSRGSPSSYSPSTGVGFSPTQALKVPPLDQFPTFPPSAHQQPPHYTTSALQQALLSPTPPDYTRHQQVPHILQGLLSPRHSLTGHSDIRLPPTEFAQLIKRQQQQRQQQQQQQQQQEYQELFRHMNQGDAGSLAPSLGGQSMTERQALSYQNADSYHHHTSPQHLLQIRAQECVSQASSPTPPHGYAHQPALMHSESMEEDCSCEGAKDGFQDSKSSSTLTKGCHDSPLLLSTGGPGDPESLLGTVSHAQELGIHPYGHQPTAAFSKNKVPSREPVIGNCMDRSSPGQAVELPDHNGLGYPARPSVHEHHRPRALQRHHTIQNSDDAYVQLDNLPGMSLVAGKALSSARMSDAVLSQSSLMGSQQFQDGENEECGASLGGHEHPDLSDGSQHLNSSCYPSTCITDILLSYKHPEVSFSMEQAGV
Active and inactive are the calls of the source.
Outcomes: 1.0 for active, 0.0 for inactive

CC(C)c1cc(CNc2nc(Nc3cc(C4CC4)[nH]n3)cc(N3CCN(C)CC3)n2)on1 [XL-228] : 0.0
CC(=O)NCC(=O)N1[C@@H]2CC[C@H]1c1ccc(Nc3ncc(C(F)(F)F)c(NC4CCC4)n3)cc12 [PF-03814735] : 1.0
CCCCCCCCCCCCCCCCCCOP(=O)([O-])OC1CC[N+](C)(C)CC1 [PERIFOSINE] : 0.0
Cn1ncc(Cl)c1-c1cc(C(=O)N[C@H](CN)Cc2ccc(F)c(F)c2)oc1Cl [UPROSERTIB] : 0.0
COc1ncc(-c2ccc3nccc(-c4ccnnc4)c3c2)cc1NS(=O)(=O)c1ccc(F)cc1F [OMIPALISIB] : 0.0
CC(C)(C)c1nc(-c2cccc(NS(=O)(=O)c3c(F)cccc3F)c2F)c(-c2ccnc(N)n2)s1 [DABRAFENIB] : 1.0
O=C1NC(=O)[C@@H](c2cn3c4c(cccc24)CCC3)[C@@H]1c1c[nH]c2ccccc12 [TIVANTINIB] : 0.0
O=C(Nc1c[nH]nc1-c1nc2cc(CN3CCOCC3)ccc2[nH]1)NC1CC1 [AT-9283] : 1.0
NC(=O)Nc1cc(-c2cccc(F)c2)sc1C(=O)N[C@H]1CCCNC1 [AZD-7762] : 1.0
CN1CCN(CCOc2cc(OC3CCOCC3)c3c(Nc4c(Cl)ccc5c4OCO5)ncnc3c2)CC1 [SARACATINIB] : 1.0
Cc1csc(-c2nnc(Nc3ccc(Oc4ncccc4-c4ccnc(N)n4)cc3)c3ccccc23)c1 [AMG-900] : 0.0
CCn1c(C(=O)N(C2CC2)C2CC2)cc2c3c(ncn3C)c(Nc3cc(C)n(C)n3)nc21 [BMS-911543] : 0.0
CNC(=O)c1cccc2cc(Oc3ccnc4cc(OCC5(N)CC5)c(OC)cc34)ccc12 [LUCITANIB] : 0.0
Cn1cc(-c2cnc3ccc4ccc(CS(=O)(=O)NCc5ccccn5)cc4c(=O)c3c2)cn1 [MK-8033] : 0.0
COCc1c(-c2ccc(NC(=O)Nc3cc(C(F)(F)F)ccc3F)c(F)c2)c2c(N)ncnn2c1CN1CCOCC1 : 0.0
Cc1cccc(-c2nn3c(c2-c2ccnc4ccc(C(N)=O)cc24)CCC3)n1 [GALUNISERTIB] : 0.0

###

experimental_target: Eukaryotic translation initiation factor 5B (Homo sapiens, UniProt O60841); also: in the data inactive means no Kd found up to 30 µM
Sequence (O60841 whole entry): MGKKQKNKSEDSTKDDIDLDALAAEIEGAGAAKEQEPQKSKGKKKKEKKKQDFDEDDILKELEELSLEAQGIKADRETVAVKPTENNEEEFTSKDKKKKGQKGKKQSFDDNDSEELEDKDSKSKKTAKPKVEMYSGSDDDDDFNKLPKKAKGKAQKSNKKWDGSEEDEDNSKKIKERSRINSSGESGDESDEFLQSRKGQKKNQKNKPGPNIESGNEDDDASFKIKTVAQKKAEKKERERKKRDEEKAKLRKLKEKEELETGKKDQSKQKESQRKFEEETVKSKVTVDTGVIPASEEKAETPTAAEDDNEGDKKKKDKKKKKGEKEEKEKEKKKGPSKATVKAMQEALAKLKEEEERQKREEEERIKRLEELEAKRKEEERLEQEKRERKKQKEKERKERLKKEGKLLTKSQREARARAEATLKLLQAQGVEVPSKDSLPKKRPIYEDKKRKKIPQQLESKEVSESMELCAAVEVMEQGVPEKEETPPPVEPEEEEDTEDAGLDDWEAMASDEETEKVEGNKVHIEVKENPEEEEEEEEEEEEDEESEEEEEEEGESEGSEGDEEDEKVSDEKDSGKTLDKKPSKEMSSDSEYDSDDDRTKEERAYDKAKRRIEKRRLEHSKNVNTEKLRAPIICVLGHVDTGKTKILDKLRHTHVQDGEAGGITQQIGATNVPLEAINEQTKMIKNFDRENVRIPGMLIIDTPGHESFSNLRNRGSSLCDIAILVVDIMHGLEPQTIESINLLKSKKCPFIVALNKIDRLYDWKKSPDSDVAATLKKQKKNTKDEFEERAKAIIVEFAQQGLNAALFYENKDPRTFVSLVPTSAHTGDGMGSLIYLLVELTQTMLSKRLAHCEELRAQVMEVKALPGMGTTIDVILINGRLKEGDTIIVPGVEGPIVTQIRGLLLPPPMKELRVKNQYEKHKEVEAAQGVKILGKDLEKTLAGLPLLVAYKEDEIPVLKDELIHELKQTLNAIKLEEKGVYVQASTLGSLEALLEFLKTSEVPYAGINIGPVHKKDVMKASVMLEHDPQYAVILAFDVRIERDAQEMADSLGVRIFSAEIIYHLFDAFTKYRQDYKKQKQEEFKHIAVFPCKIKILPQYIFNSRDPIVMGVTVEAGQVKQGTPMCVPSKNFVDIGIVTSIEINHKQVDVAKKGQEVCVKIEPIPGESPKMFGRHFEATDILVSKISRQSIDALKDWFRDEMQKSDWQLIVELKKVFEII
Active and inactive are the calls of the source.
# key: entry, value: Kd
measured_endpoint: Kd

O=C1NC(=O)[C@@H](c2cn3c4c(cccc24)CCC3)[C@@H]1c1c[nH]c2ccccc12 [TIVANTINIB] : 0.232 µM
C=CC(=O)N1CCC[C@H](n2c(=O)n(-c3ccc(Oc4ccccc4)cc3)c3c(N)ncnc32)C1 : > 30 µM (inactive)
Cc1[nH]c(/C=C2\C(=O)Nc3ccccc32)c(C)c1CCC(=O)O [ORANTINIB] : > 30 µM (inactive)
C[C@@H](Oc1cc(-n2cnc3ccc(CN4CCN(C)CC4)cc32)sc1C(N)=O)c1ccccc1C(F)(F)F [GSK-461364] : > 30 µM (inactive)
